System: CCRIS mutagenicity, Ames/micronucleus/aberration tests
ASSAY: CCRIS mutagenicity studies
STUDY_CONDITIONS: Test System: AMES SALMONELLA TYPHIMURIUM; Strain/Indicator: TA1535; Metabolic Activation: NONE; Method: PREINCUBATION
The source made the active and inactive calls. The rule behind the calls is not given here.
Write down one outcome, taken from Y = active, N = inactive

[
  {
    "COMPOUND": "O=CCCCC=O",
    "TESTED_SYSTEM": "CCRIS mutagenicity, Ames/micronucleus/aberration tests",
    "CLASS_ASSIGNMENT": "N"
  },
  {
    "COMPOUND": "Nc1ccc(O)c([N+](=O)[O-])c1",
    "TESTED_SYSTEM": "CCRIS mutagenicity, Ames/micronucleus/aberration tests",
    "CLASS_ASSIGNMENT": "N"
  },
  {
    "COMPOUND": "CC/C=C1\\OC(=O)c2ccccc21",
    "TESTED_SYSTEM": "CCRIS mutagenicity, Ames/micronucleus/aberration tests",
    "CLASS_ASSIGNMENT": "N"
  },
  {
    "COMPOUND": "c1ccc(Nc2ccc3ccccc3c2)cc1",
    "TESTED_SYSTEM": "CCRIS mutagenicity, Ames/micronucleus/aberration tests",
    "CLASS_ASSIGNMENT": "N"
  },
  {
    "COMPOUND": "C=CC(=O)OCCBr",
    "TESTED_SYSTEM": "CCRIS mutagenicity, Ames/micronucleus/aberration tests",
    "CLASS_ASSIGNMENT": "Y"
  }
]

What did this assay record as the result for Nc1nc(=O)n([C@H]2C[C@H](O)[C@@H](CO)O2)cc1I ?
N

So what was the verdict on CCOC(=O)c1ccccc1N in this test?
N

Fill in: this test's call for C=CCOC(=O)c1ccccc1N is ___
N

Tell me the assay call for c1ccc2ncccc2c1 please.
N

What call does the record list for Oc1cccc(O)c1O ?
N

// return assay outcome for Cc1cc(C)n(-c2nnc(NN)c3c2[nH]c2ccccc23)n1
N

Entry source: PubChem BioAssay AID1259407
